Exercise: for every item that follows, state its recorded pIC50.
- Tested on: Mes-Sa mCherry uterine sarcoma cell line
- Protocol text: Triple coculture fluorescence cytotoxicity test, parental line
- Assay type: cell-based, human
- Measurement parameters: 144 h incubation, fluorescence readout
pIC50 here: minus log base 10 of the concentration, concentration in moles per litre.

Would you mind telling me what pIC50 value was observed for CC(C)c1cccc(C(C)C)c1N1[C](=[Au][Cl])N([C@H](C)c2ccccc2)C[C@@H]1C(C)(C)C [Compound 3c] ?
4.73

What value of pIC50 has been recorded for this entry: C=C[CH2][Pd]([Cl])=[C]1N(c2c(C(C)C)cccc2C(C)C)CCN1c1c(C(C)C)cccc1C(C)C [Compound 8a]
5.57

Request the reported pIC50 associated with CC(C)c1cccc(C(C)C)c1-n1ccn(-c2c(C(C)C)cccc2C(C)C)[c]1=[Au][Cl] [Compound 7b]
4.73

Reported pIC50 for C=C[CH2][Pd]([Cl])=[C]1N([C@H](C)c2ccccc2)C[C@H](C(C)(C)C)N1c1c(C(C)C)cccc1C(C)C [Compound 4c] : what is it?
5.63

// pIC50 lookup, key: CC(C)c1cccc(C(C)C)c1N1CCN(c2c(C(C)C)cccc2C(C)C)[C]1=[Cu+]=[C]1N(c2c(C(C)C)cccc2C(C)C)CCN1c1c(C(C)C)cccc1C(C)C.F[B-](F)(F)F [Compound 9a]
7.14

What pIC50 value was documented for this compound, CC(C)c1cccc(C(C)C)c1N1[C](=[Cu][Cl])N([C@@H](C)c2cccc3ccccc23)C[C@@H]1C(C)(C)C [Compound 1d] ?
6.29

Using the record for CC(C)c1cccc(C(C)C)c1N1[C](=[Ag][Cl])N([C@H](C)c2ccc3ccccc3c2)C[C@@H]1C(C)(C)C [Compound 2e] , report its pIC50.
6.03

* * *

- Test system: CST-2/3 cisplatin-resistant cells
- Protocol text: Monoculture PrestoBlue cytotoxicity test, cisplatin-resistant CST-2/3
- Type: cell-based, mouse
- Measurement parameters: Mus musculus; monoculture, 120 h exposure, PrestoBlue
- Procedure: CST, a drug-naïve murine breast cancer cell line, and cisplatin-resistant cells CST-2/3 were seeded in monoculture into 384-well plates (Corning Inc., Corning, NY, USA) at a density of 2500 cells per well using automated liquid-handling. […] Following 120 h of continuous drug exposure, cell viability was quantified using the PrestoBlue viability assay (Thermo Fisher Scientific, Waltham, MA, USA) after 1 h incubation at 555 nm excitation and 585 nm emission wavelengths. […]
Endpoint label: pIC50
Just so you know, pIC50 here is -log10 of the concentration in molar units; reply with that number alone.

For the compound shown here, CC(C)c1cccc(C(C)C)c1N1C=[N+]([C@@H](C)c2ccccc2)C[C@@H]1C(C)(C)C [Lb] , give the reported pIC50.
5.01

// lookup pIC50 for CC(C)c1cccc(C(C)C)c1N1C=[N+](c2c(C(C)C)cccc2C(C)C)CC1 [SIPr, reference compound]
4.69

* * *

- System: CST-2/3 cisplatin-resistant cells
- Protocol text: Monoculture PrestoBlue cytotoxicity test, cisplatin-resistant CST-2/3
- Format: cell-based, mouse
- Measurement parameters: monoculture, 120 h exposure, PrestoBlue
Endpoint label: pIC50
By convention, pIC50 is the negative base-10 log of a molar concentration.

I am curious: what pIC50 value has been reported for "C=C[CH2][Pd]([Cl])=[C]1N([C@H](C)c2ccccc2)C[C@H](C(C)(C)C)N1c1c(C(C)C)cccc1C(C)C" ?
5.87

Request the reported pIC50 associated with "CC(C)c1cccc(C(C)C)c1N1CCN(c2c(C(C)C)cccc2C(C)C)[C]1=[Ag][Cl]"
6.06

Consider the compound N.N.[Cl][Pt][Cl] [Cisplatin] and give its measured pIC50.
6.09
